Settings: buffer; pH 7.4; 200.0 µM
measuredParameter: solubility kinetic

Would you please look over these solved cases?
Cc1ccc(C)c(NC(=O)CCN2CCC(C)CC2)c1; > 41.2 µg/mL
O=C(O)c1ccc(Cl)c(S(=O)(=O)N2CCCC2)c1; > 43.5 µg/mL

// switching to the query molecule
-- ask Recall and state the measured solubility kinetic for O=S1(=O)CCC(NC(=S)Nc2ccccc2)C1 (stereo not drawn) .
-- reply > 40.6 µg/mL

====

Settings: buffer; pH 7.4; 200.0 µM
measuredParameter: solubility kinetic

Worked cases, answers included:
CC(C)(C)OC(=O)N1CCC(CNC(=O)c2ccccc2)CC1; > 0.0478 mg/mL
Cc1c(NC(=O)Nc2ccc(F)cc2F)c(=O)n(-c2ccccc2)n1C; > 0.0538 mg/mL
COc1cc(/C=C/C(=O)OCC(=O)NCc2ccc(F)cc2)ccc1O; > 0.0539 mg/mL
COCC(C)NC(=S)Nc1ccccc1[N+](=O)[O-] (stereo unspecified); > 0.0404 mg/mL
COc1ccccc1-c1c(NC(=O)C(C)C)n(C)c2ccccc2c1=O; > 0.0526 mg/mL

Give solubility kinetic for all molecules that follow.
1. O=C(Cn1c(=O)oc2ccccc21)NCC1COc2ccccc2O1 (stereo unspecified)
2. CC(Sc1ccccc1)C(=O)N(CCC#N)Cc1cccnc1 (stereo unspecified)
3. O=C(COC(=O)C1CCC(=O)N1)Nc1ccccc1OC(F)F (stereo unspecified)

-- reply
> 0.0511 mg/mL
> 0.0488 mg/mL
> 0.0492 mg/mL

Provide the reported solubility kinetic of each entry below, same order.
1. Cc1ccccc1Nc1ncnc(N)n1
2. O=C(O)CCCC(=O)Nc1cccc([N+](=O)[O-])c1
3. O=C(CN1C(=O)c2ccccc2S1(=O)=O)N1CCCCC1

-- reply
1: > 0.0302 mg/mL; 2: > 0.0378 mg/mL; 3: > 0.0463 mg/mL
